- methodSummary: Tissue distribution of radioactivity in rats after intravenous administration
- Assay type: in vivo
- conditions: rat, liver, iv, 60 min, read-out: Distribution of radioactivity, Liver
readout: tissue uptake at 1 h (%ID/g)
A number alone suffices; assume %ID/g.

What does the data say about its tissue uptake at 1 h? Entry: O=C(O)CCCC[Te]CCCCCCCCCc1ccc([125I])cc1 7.69

---

- methodSummary: Tissue distribution of radioactivity in rats after intravenous administration
- Type: in vivo
- conditions: rat, liver, iv, 2 h, read-out: Distribution of radioactivity, Liver
readout: tissue uptake at 2 h (%ID/g)
Could you give me the number in %ID/g? Just the number is fine.

What tissue uptake at 2 h value was documented for this compound, O=C(O)CCCC[Te]CCCCCCCCCc1ccc([125I])cc1 ? 8.38

---

- methodSummary: Tissue distribution of radioactivity in rats after intravenous administration
- Format: in vivo
- conditions: rat, liver, iv, 5 d, read-out: Distribution of radioactivity, Liver
readout: tissue uptake at 120 h (%ID/g)
Express your answer in %ID/g, writing the number without its unit.

I'd like to know its tissue uptake at 120 h. The compound in question is O=C(O)CCCC[Te]CCCCCCCCCc1ccc([125I])cc1 1.28

---

- methodSummary: Tissue distribution of radioactivity in rats after intravenous administration
- Format: in vivo
- conditions: rat, thyroid, iv, 60 min, read-out: Distribution of radioactivity, Thyroid
readout: tissue uptake at 1 h (%ID/g)
A number alone suffices; assume %ID/g.

Given O=C(O)CCCC[Te]CCCCCCCCCc1ccc([125I])cc1 , state its recorded tissue uptake at 1 h. 1.48

---

- methodSummary: Tissue distribution of radioactivity in rats after intravenous administration
- Assay type: in vivo
- conditions: rat, liver, iv, 6 h, read-out: Distribution of radioactivity, Liver
readout: tissue uptake at 6 h (%ID/g)
Kindly answer with a numeric value in %ID/g, unit omitted.

GET /values?readout=tissue uptake at 6 h&item= O=C(O)CCCC[Te]CCCCCCCCCc1ccc([125I])cc1 8.37

---

- methodSummary: Tissue distribution of radioactivity in rats after intravenous administration
- Type: in vivo
- conditions: rat, blood, iv, 30 min, read-out: Distribution of radioactivity, Blood
readout: tissue uptake at 0.5 h (%ID/g)
Just the number please, in %ID/g, no unit attached.

Dear colleague, I am looking for the recorded tissue uptake at 0.5 h of the following molecule: O=C(O)CCCC[Te]CCCCCCCCCc1ccc([125I])cc1 0.45

---

- methodSummary: Tissue distribution of radioactivity in rats after intravenous administration
- Type: in vivo
- conditions: rat, thyroid, iv, 1 d, read-out: Distribution of radioactivity, Thyroid
readout: tissue uptake at 24 h

Value lookup for tissue uptake at 24 h; key = O=C(O)CCCC[Te]CCCCCCCCCc1ccc([125I])cc1 22.8 %ID/g

---

- methodSummary: Tissue distribution of radioactivity in rats after intravenous administration
- Type: in vivo
- conditions: rat, thyroid, iv, 6 h, read-out: Distribution of radioactivity, Thyroid
readout: tissue uptake at 6 h

// returns reported tissue uptake at 6 h for input O=C(O)CCCC[Te]CCCCCCCCCc1ccc([125I])cc1 5.89 %ID/g

---

- methodSummary: Tissue distribution of radioactivity in rats after intravenous administration
- Type: in vivo
- conditions: rat, thyroid, iv, 30 min, read-out: Distribution of radioactivity, Thyroid
readout: tissue uptake at 0.5 h (%ID/g)
A number alone suffices; assume %ID/g.

Please give the measured tissue uptake at 0.5 h for this compound: O=C(O)CCCC[Te]CCCCCCCCCc1ccc([125I])cc1 1.51
